Provenance of the data: paper PMC11341970

Target: hBACE 1 (Homo sapiens, UniProt P56817)
Sequence (P56817 46-501): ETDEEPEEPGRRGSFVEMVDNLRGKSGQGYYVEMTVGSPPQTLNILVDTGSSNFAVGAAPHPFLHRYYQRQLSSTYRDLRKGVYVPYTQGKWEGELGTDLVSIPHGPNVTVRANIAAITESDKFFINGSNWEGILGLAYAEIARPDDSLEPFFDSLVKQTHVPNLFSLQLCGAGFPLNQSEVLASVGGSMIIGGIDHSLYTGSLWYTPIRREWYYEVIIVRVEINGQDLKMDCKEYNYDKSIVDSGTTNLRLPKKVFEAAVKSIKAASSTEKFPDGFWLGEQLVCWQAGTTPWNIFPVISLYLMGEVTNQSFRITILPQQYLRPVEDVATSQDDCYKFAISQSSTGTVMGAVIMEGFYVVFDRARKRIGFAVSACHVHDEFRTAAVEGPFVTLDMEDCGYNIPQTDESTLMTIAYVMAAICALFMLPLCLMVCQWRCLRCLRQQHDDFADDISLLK
Test: BACE 1 inhibition assay
Assay type: biochemical
pIC50: −log10 of the molar value.

- Molecule: "[H]/N=C(/N)NN=C(/C=C/c1ccccc1)c1cccn1Cc1cc(Cl)ccc1Cl [Compound 2e]"
  pIC50: 3.75
- Molecule: "[H]/N=C(/N)NN=C(/C=C/c1ccc(OC)cc1)c1cccn1Cc1ccccc1 [Compound 1f]"
  pIC50: 3.76
- Molecule: "[H]/N=C(/N)NN=C(/C=C/c1ccccc1)c1cccn1Cc1ccc(C(C)(C)C)cc1 [Compound 2q]"
  pIC50: 3.78
- Molecule: "[H]/N=C(/N)NN=C(/C=C/c1ccc(C(C)(C)C)cc1)c1cccn1Cc1ccc(C(F)(F)F)cc1 [Compound 3h]"
  pIC50: 3.75
- Molecule: "[H]/N=C(/N)NN=C(/C=C/c1cccc(OC)c1)c1cccn1Cc1ccccc1 [Compound 1i]"
  pIC50: 3.87
- Molecule: "[H]/N=C(/N)NN=C(/C=C/c1ccccc1Cl)c1cccn1Cc1ccccc1 [Compound 1b]"
  pIC50: 3.74
- Molecule: "[H]/N=C(/N)NN=C(/C=C/c1ccccc1F)c1cccn1Cc1ccccc1 [Compound 1e]"
  pIC50: 3.76

* * *

Target: EeAChE (Electrophorus electricus, UniProt O42275)
Sequence (O42275 24-633): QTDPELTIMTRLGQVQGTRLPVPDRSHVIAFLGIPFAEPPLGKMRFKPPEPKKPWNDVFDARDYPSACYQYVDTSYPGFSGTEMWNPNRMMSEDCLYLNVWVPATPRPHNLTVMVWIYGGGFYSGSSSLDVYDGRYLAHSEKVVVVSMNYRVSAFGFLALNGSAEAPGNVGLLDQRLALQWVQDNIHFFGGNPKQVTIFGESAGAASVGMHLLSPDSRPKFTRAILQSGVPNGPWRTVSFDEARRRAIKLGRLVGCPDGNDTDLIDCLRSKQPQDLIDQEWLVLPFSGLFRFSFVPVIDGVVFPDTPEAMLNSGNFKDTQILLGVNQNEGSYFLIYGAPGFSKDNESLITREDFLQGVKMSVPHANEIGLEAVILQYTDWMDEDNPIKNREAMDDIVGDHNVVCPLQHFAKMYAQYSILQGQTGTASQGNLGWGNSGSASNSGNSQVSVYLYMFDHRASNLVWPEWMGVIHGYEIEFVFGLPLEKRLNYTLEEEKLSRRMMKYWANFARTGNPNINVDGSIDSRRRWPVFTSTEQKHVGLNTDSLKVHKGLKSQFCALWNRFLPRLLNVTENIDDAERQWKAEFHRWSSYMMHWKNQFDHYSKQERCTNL
Assay: AChE inhibition assay
Type: biochemical
Please note: IC50 exactly at 100 µM is no. Only values below 100 µM get yes.

- Sample Smiles: "[H]/N=C(/N)NN=C(/C=C/c1ccccc1)c1cccn1Cc1ccc(C)cc1"
  Class Assignment: "no"
- Sample Smiles: "[H]/N=C(/N)NN=C(/C=C/c1ccc(Cl)cc1)c1cccn1Cc1ccc(Br)cc1"
  Class Assignment: "no"
- Sample Smiles: "[H]/N=C(/N)NN=C(/C=C/c1ccccc1)c1cccn1Cc1cccc(C#N)c1"
  Class Assignment: "yes"
- Sample Smiles: "[H]/N=C(/N)NN=C(/C=C/c1ccc(C(C)C)cc1)c1cccn1Cc1ccccc1"
  Class Assignment: "no"
- Sample Smiles: "[H]/N=C(/N)NN=C(/C=C/c1ccc(OC)cc1)c1cccn1Cc1ccccc1"
  Class Assignment: "no"
- Sample Smiles: "[H]/N=C(/N)NN=C(/C=C/c1cccc(OC)c1)c1cccn1Cc1ccccc1"
  Class Assignment: "no"
- Sample Smiles: "[H]/N=C(/N)NN=C(/C=C/c1ccc(OC)c(OC)c1)c1cccn1Cc1cc(OC)cc(OC)c1"
  Class Assignment: "yes"

* * *

Target: hBACE 1 (Homo sapiens, UniProt P56817)
Assay: BACE 1 inhibition assay
Format: biochemical
Conditions: read-out: hBACE 1 IC50 (μM) ± SD; FRET assay, mean ± SD of three experiments
Assay Readout: IC50 (µM)

- Sample Smiles: "[H]/N=C(/N)NN=C(/C=C/c1ccccc1)c1cccn1Cc1ccc(OC(F)F)cc1"
  Quantity Unit: "µM"
  Quantitative Readout: 15.4
- Sample Smiles: "[H]/N=C(/N)NN=C(/C=C/c1ccc(F)cc1)c1cccn1Cc1ccc(Br)cc1"
  Quantity Unit: "µM"
  Quantitative Readout: 166
- Sample Smiles: "[H]/N=C(/N)NN=C(/C=C/c1ccc(F)c(F)c1)c1cccn1Cc1ccc(C(C)(C)C)cc1"
  Quantity Unit: "µM"
  Quantitative Readout: 136
- Sample Smiles: "[H]/N=C(/N)NN=C(/C=C/c1ccccc1)c1cccn1Cc1ccc(OC(F)(F)F)cc1"
  Quantity Unit: "µM"
  Quantitative Readout: 86.2

* * *

IC50 overview
Molecular target: hBACE 1 (Homo sapiens)
Test: BACE 1 inhibition assay
Format: biochemical
Conditions: read-out: hBACE 1 IC50 (μM) ± SD; FRET assay, mean ± SD of three experiments

- Sample Smiles: "[H]/N=C(/N)NN=C(/C=C/c1ccc(C(F)(F)F)cc1)c1cccn1Cc1ccc(CCCC)cc1"
  IC50: "205 µM"
- Sample Smiles: "[H]/N=C(/N)NN=C(/C=C/c1ccc(OC)c(OC)c1)c1cccn1Cc1ccc(F)cc1C(F)(F)F"
  IC50: "204 µM"
- Sample Smiles: "[H]/N=C(/N)NN=C(/C=C/c1ccccc1)c1cccn1Cc1cc(F)ccc1F"
  IC50: "107 µM"
- Sample Smiles: "[H]/N=C(/N)NN=C(/C=C/c1ccc(C(C)(C)C)cc1)c1cccn1Cc1ccc(F)cc1F"
  IC50: "222 µM"

* * *

Target: EeAChE (Electrophorus electricus, UniProt O42275)
Test: AChE inhibition assay
Format: biochemical
Settings: read-out: eeAChE IC50 (μM) ± SD; Ellman assay, mean ± SD of three experiments
Please note: IC50 exactly at 100 µM is Not met. Only values below 100 µM get Met.

- Sample Smiles: "[H]/N=C(/N)NN=C(/C=C/c1ccc(F)cc1)c1cccn1Cc1ccc(Br)cc1"
  Study System: "EeAChE (Electrophorus electricus, UniProt O42275)"
  Class Assignment: "Met"
- Sample Smiles: "[H]/N=C(/N)NN=C(/C=C/c1ccc(F)c(F)c1)c1cccn1Cc1ccc(C(C)(C)C)cc1"
  Study System: "EeAChE (Electrophorus electricus, UniProt O42275)"
  Class Assignment: "Not met"
- Sample Smiles: "[H]/N=C(/N)NN=C(/C=C/c1ccccc1)c1cccn1Cc1ccc(OC(F)(F)F)cc1"
  Study System: "EeAChE (Electrophorus electricus, UniProt O42275)"
  Class Assignment: "Not met"
- Sample Smiles: "[H]/N=C(/N)NN=C(/C=C/c1ccccc1)c1cccn1Cc1ccc(OC(F)F)cc1"
  Study System: "EeAChE (Electrophorus electricus, UniProt O42275)"
  Class Assignment: "Not met"
- Sample Smiles: "[H]/N=C(/N)NN=C(/C=C/c1ccccc1)c1cccn1Cc1cc(F)ccc1F"
  Study System: "EeAChE (Electrophorus electricus, UniProt O42275)"
  Class Assignment: "Not met"
- Sample Smiles: "[H]/N=C(/N)NN=C(/C=C/c1ccc(OC)c(OC)c1)c1cccn1Cc1ccc(F)cc1C(F)(F)F"
  Study System: "EeAChE (Electrophorus electricus, UniProt O42275)"
  Class Assignment: "Met"
- Sample Smiles: "[H]/N=C(/N)NN=C(/C=C/c1ccc(C(C)(C)C)cc1)c1cccn1Cc1ccc(F)cc1F"
  Study System: "EeAChE (Electrophorus electricus, UniProt O42275)"
  Class Assignment: "Not met"
- Sample Smiles: "[H]/N=C(/N)NN=C(/C=C/c1ccc(C(F)(F)F)cc1)c1cccn1Cc1ccc(CCCC)cc1"
  Study System: "EeAChE (Electrophorus electricus, UniProt O42275)"
  Class Assignment: "Met"

* * *

Target: hBACE 1 (Homo sapiens, UniProt P56817)
Assay: BACE 1 inhibition assay
Assay type: biochemical
pIC50: −log10 of the molar value.
Assay Readout: pIC50

- Sample Smiles: "[H]/N=C(/N)NN=C(/C=C/c1ccc(Cl)cc1Cl)c1cccn1Cc1ccccc1"
  Assay Readout: "pIC50"
  Quantitative Readout: 3.68
- Sample Smiles: "[H]/N=C(/N)NN=C(/C=C/c1ccccc1)c1cccn1Cc1cc(C(F)(F)F)cc(C(F)(F)F)c1"
  Assay Readout: "pIC50"
  Quantitative Readout: 3.86
- Sample Smiles: "[H]/N=C(/N)NN=C(/C=C/c1ccc([N+](=O)[O-])cc1)c1cccn1Cc1ccccc1"
  Assay Readout: "pIC50"
  Quantitative Readout: 3.71
- Sample Smiles: "[H]/N=C(/N)NN=C(/C=C/c1ccccc1)c1cccn1Cc1ccc(CCCC)cc1"
  Assay Readout: "pIC50"
  Quantitative Readout: 3.88
- Sample Smiles: "[H]/N=C(/N)NN=C(/C=C/c1ccccc1)c1cccn1Cc1ccc([N+](=O)[O-])cc1"
  Assay Readout: "pIC50"
  Quantitative Readout: 3.71
- Sample Smiles: "[H]/N=C(/N)NN=C(/C=C/c1ccc(C(C)C)cc1)c1cccn1Cc1ccccc1"
  Assay Readout: "pIC50"
  Quantitative Readout: 3.97
- Sample Smiles: "[H]/N=C(/N)NN=C(/C=C/c1ccccc1)c1cccn1Cc1cccc(Br)c1"
  Assay Readout: "pIC50"
  Quantitative Readout: 3.87
- Sample Smiles: "[H]/N=C(/N)NN=C(/C=C/c1ccccn1)c1cccn1Cc1ccccc1"
  Assay Readout: "pIC50"
  Quantitative Readout: 4.86
- Sample Smiles: "[H]/N=C(/N)NN=C(/C=C/c1ccccc1)c1cccn1Cc1ccc(F)cc1F"
  Assay Readout: "pIC50"
  Quantitative Readout: 3.87
- Sample Smiles: "[H]/N=C(/N)NN=C(/C=C/c1ccccc1)c1cccn1Cc1ccccc1F"
  Assay Readout: "pIC50"
  Quantitative Readout: 4.00
- Sample Smiles: "[H]/N=C(/N)NN=C(/C=C/c1ccc(OC)c(OC)c1)c1cccn1Cc1cc(OC)cc(OC)c1"
  Assay Readout: "pIC50"
  Quantitative Readout: 3.79
- Sample Smiles: "[H]/N=C(/N)NN=C(/C=C/c1ccccc1)c1cccn1Cc1ccc(F)cc1C(F)(F)F"
  Assay Readout: "pIC50"
  Quantitative Readout: 4.13
- Sample Smiles: "[H]/N=C(/N)NN=C(/C=C/c1cc(OC)cc(OC)c1)c1cccn1Cc1ccc(C(C)(C)C)cc1"
  Assay Readout: "pIC50"
  Quantitative Readout: 3.75
- Sample Smiles: "[H]/N=C(/N)NN=C(/C=C/c1ccc(C(C)(C)C)cc1)c1cccn1Cc1ccc(Br)cc1"
  Assay Readout: "pIC50"
  Quantitative Readout: 3.71
- Sample Smiles: "[H]/N=C(/N)NN=C(/C=C/c1ccc(Cl)cc1)c1cccn1Cc1ccc(Br)cc1"
  Assay Readout: "pIC50"
  Quantitative Readout: 3.72
- Sample Smiles: "[H]/N=C(/N)NN=C(/C=C/c1ccccc1)c1cccn1Cc1ccccc1"
  Assay Readout: "pIC50"
  Quantitative Readout: 3.77
